system: Pancreatin; assay: Protease stability in simulated intestinal fluid (Pancreatin-SIF, FaSSIF); type: in vitro ADME; conditions: 240 min, 1 μM peptide, 37° C., read-out: FaSSIF 240 (min), remaining percent of peptide
Positions of bridges follow the written chain, without caps; N, C: chain ends. Non-standard residues stand in square brackets, D forms with d. Residues, ends and D or L forms follow the SMILES beside them. *: point of attachment. Trp(7-Me) = Cc1cccc2c(C[C@H](N)C(=O)O)c[nH]c12; 2Nal = N[C@@H](Cc1ccc2ccccc2c1)C(=O)O; Me2NCH2CH2 = CN(C)CC*; Aib = CC(C)(N)C(=O)O; Ava = NCCCCC(=O)O; βAla = NCCC(=O)O
QUANTITY_KIND: remaining at 4 h, 1 µM (%)
Field format: number, assumed %, no unit text.

Entry CC(=O)NCCCC[C@@H]1NC(=O)[C@H](Cc2c[nH]c3c(C)cccc23)NC(=O)[C@H]([C@@H](C)O)NC(=O)[C@H](CC(N)=O)NC(=O)[C@@H]2CSSC[C@H](NC1=O)C(=O)N[C@@H](Cc1ccc(OCCN(C)C)cc1)C(=O)N[C@@H](Cc1ccc3ccccc3c1)C(=O)NC(C)(C)C(=O)N[C@H](C(=O)N[C@@H](CC(N)=O)C(=O)N[C@@H](Cc1c[nH]cn1)C(=O)NCCC(N)=O)CCC(=O)NCCCCC(=O)N2 [compound 48] ([Ava]CNT[Trp(7-Me)]K(Ac)CY(Me2NCH2CH2)[2Nal][Aib]ENH[βAla]-NH2; disulfide 2-7; lactam N-11) — recorded remaining at 4 h, 1 µM = 76

---

biological target: human interleukin-23 receptor (recombinant human IL-23R-Fc chimera) (Homo sapiens); construct: Fc (IgG Fc fusion); experiment: Human ELISA IL23/IL23R (assay for specific human IL23R antagonists); format: binding; details: Table 10; read-out: Human ELISA IL23/IL23R IC50
Positions of bridges follow the written chain, without caps; N, C: chain ends. Non-standard residues stand in square brackets, D forms with d. Residues, ends and D or L forms follow the SMILES beside them. *: point of attachment. Trp(7-Me) = Cc1cccc2c(C[C@H](N)C(=O)O)c[nH]c12; αMeLys(Me2) = CN(C)CCCC[C@](C)(N)C(=O)O; 2Nal = N[C@@H](Cc1ccc2ccccc2c1)C(=O)O; Me2NCH2CH2 = CN(C)CC*; Aib = CC(C)(N)C(=O)O; Ava = NCCCCC(=O)O
QUANTITY_KIND: IC50 (pM)
Field format: number, assumed pM, no unit text.

Entry CC(=O)NCCCC[C@@H]1NC(=O)[C@H](Cc2c[nH]c3c(C)cccc23)NC(=O)[C@H]([C@@H](C)O)NC(=O)[C@H](CC(N)=O)NC(=O)[C@@H]2CSSC[C@H](NC1=O)C(=O)N[C@@H](Cc1ccc(OCCN(C)C)cc1)C(=O)N[C@@H](Cc1ccc3ccccc3c1)C(=O)N[C@@](C)(CCCCN(C)C)C(=O)N[C@H](C(=O)N[C@@H](CC(N)=O)C(=O)N[C@H](CC(C)C)C(N)=O)CCC(=O)NCCCCC(=O)N2 [compound 54] ([Ava]CNT[Trp(7-Me)]K(Ac)CY(Me2NCH2CH2)[2Nal][αMeLys(Me2)]EN[dL]-NH2; disulfide 2-7; lactam N-11) — recorded IC50 = 510

Entry Cc1cccc2c(C[C@@H]3NC(=O)[C@H]([C@@H](C)O)NC(=O)[C@H](CC(N)=O)NC(=O)[C@@H]4CSSC[C@H](NC(=O)[C@H](CCC(N)=O)NC3=O)C(=O)N[C@@H](Cc3ccc(OCCN(C)C)cc3)C(=O)N[C@@H](Cc3ccc5ccccc5c3)C(=O)NC(C)(C)C(=O)N[C@H](C(=O)N[C@@H](CO)C(=O)N[C@@H](Cc3c[nH]cn3)C(N)=O)CCC(=O)NCCCCC(=O)N4)c[nH]c12 [compound 43] ([Ava]CNT[Trp(7-Me)]QCY(Me2NCH2CH2)[2Nal][Aib]ESH-NH2; disulfide 2-7; lactam N-11) — recorded IC50 = 330

The measured values listed here are drawn from patent US20260258084A1.
